Tested on: CMV
Experimental Details: Antiviral (CMV) activity
Type: cell-based
Condition Context: TC50/IC50, CMV
Protocol: The cell culture cytotoxicity of compounds of the present invention was determined against several different human cancel cell lines (see Table 1 below) and for antiviral activity (see Table 2 below).
Readout: TI: Therapeutic Index (TC50/IC50)

So for Nc1ccn([C@@H]2S[C@@H](CO)[C@@H](O)[C@@H]2O)c(=O)n1 , the logged TI: Therapeutic Index (TC50/IC50) turned out to be >384.6

So for Nc1nc(O)c2ncn(COC(CO)CO)c2n1 [Ganciclovir, reference compound] , the logged TI: Therapeutic Index (TC50/IC50) turned out to be >11.6

So for Nc1ccn([C@H]2S[C@@H](CO)[C@@H](O)[C@@H]2O)c(=O)n1 , the logged TI: Therapeutic Index (TC50/IC50) turned out to be >454.5

So for Nc1nc(N)c2ncn([C@@H]3S[C@@H](CO)[C@@H](O)[C@@H]3O)c2n1 , the logged TI: Therapeutic Index (TC50/IC50) turned out to be >196.1
